# ASSAY_SYSTEM: ΔF508-CFTR (Homo sapiens, UniProt P13569, DEL508-508)
# Construct: host or cells: CFBE41o-, doxycycline-inducible
# Sequence (P13569 with tags, fused parts or gaps DEL508-508): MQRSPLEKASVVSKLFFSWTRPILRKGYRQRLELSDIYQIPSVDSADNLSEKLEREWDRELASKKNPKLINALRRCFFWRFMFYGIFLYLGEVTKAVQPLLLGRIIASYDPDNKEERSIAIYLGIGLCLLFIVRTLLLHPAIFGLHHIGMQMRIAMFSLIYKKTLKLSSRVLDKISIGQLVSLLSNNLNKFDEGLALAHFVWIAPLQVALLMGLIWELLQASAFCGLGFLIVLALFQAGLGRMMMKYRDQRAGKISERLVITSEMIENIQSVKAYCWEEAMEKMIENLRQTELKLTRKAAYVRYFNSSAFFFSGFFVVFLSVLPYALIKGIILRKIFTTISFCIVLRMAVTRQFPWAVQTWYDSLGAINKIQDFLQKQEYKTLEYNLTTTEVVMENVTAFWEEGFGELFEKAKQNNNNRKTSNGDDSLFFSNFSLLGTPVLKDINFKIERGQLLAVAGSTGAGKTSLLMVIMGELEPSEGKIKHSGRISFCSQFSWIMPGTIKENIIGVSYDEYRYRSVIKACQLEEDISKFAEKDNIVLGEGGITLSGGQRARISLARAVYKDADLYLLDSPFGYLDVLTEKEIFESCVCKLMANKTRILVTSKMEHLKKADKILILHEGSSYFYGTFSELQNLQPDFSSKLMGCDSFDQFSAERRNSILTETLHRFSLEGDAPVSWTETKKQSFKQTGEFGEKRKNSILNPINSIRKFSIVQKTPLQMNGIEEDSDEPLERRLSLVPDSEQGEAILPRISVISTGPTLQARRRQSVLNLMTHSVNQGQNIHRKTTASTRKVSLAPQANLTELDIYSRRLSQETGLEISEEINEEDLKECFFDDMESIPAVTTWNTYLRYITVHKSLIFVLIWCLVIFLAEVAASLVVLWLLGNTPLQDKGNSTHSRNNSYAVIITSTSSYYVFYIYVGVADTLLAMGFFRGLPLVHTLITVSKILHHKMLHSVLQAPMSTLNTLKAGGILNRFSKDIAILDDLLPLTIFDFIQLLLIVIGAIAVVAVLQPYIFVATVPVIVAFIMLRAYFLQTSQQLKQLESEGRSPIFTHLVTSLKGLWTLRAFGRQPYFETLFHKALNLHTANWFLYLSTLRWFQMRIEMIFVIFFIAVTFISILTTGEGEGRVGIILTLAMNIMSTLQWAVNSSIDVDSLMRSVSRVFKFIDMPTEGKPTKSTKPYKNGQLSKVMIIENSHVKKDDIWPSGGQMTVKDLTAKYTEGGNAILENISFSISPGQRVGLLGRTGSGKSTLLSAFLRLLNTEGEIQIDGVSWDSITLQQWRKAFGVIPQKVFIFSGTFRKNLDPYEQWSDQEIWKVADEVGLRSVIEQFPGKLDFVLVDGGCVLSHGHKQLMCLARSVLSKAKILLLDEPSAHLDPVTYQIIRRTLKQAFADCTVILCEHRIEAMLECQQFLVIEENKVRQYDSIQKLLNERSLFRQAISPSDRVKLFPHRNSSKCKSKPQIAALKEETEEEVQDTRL
# EXPERIMENTAL_PROTOCOL: CFTR cell surface levels using HRP-tagged ΔF508-CFTR expressing CFBE cells, in the presence of a co-corrector
# Format: cell-based
# EXPERIMENTAL_SETUP: HRP-tagged ΔF508-CFTR expressing CFBE cells, in the presence of 3 μM co-corrector; read-out: EC50
Provide the reported EC50 of each item.
Answers are plain numbers, in nM.

// solved cases for EC50 follow
INSERT INTO measurements (compound, reported_property, test_result) VALUES
  ('COCC1CCN(c2cc(C(=O)O)nc3c2c(C2CCC2)nn3-c2ccnc(OC)c2)CC1 [compound 678]', 'EC50', 91.8),
  ('CC(C)c1nn(C2CCC(F)(F)CC2)c2nc(C(=O)O)cc(-c3ccc(N4CCOCC4)cc3)c12 [compound 159]', 'EC50', 755),
  ('C[C@@H]1CN(c2cc(C(=O)O)nc3c2c(C2CCC2)nn3C2CCCCC2)CCN1Cc1ccccc1 [compound 882]', 'EC50', 372),
  ('Cc1nn(-c2ccccc2)c2nc(C(=O)O)cc(N3CC4(CCCCC4)C3)c12 [compound 309]', 'EC50', 1330),
  ('O=C(O)c1cc(OC2CCCCCCC2)c2c(C3CCC3)nn(-c3ccccc3)c2n1 [compound 649]', 'EC50', 225);

Working through the 2 compounds below one at a time, give EC50 for each.
1. CC(C)c1nn(-c2cccc(F)c2)c2nc(C(=O)O)cc(-c3ccc(N4CCOCC4)cc3)c12 [compound 242]
2. CC(=O)N1CC[C@H]2CN(c3cc(C(=O)O)nc4c3c(C3CCC3)nn4-c3ccccc3)CC[C@H]21 (single isomer, unassigned) [compound 588]

a:
338
2420

Working through the 3 compounds below one at a time, give EC50 for each.
1. CCOCCN1CCC(N2CCN(c3cc(C(=O)O)nc4c3c(C(C)C)nn4-c3ccc(F)cc3)CC2)CC1 [compound 741]
2. CCOCCN1CCN(C2CCN(c3cc(C(=O)O)nc4c3c(C(C)C)nn4-c3ccc(F)cc3)CC2)CC1 [compound 745]
3. COCC1CCN(c2cc(C(=O)O)nc3c2c(C2CCC2)nn3-c2ccc(F)cc2)CC1 [compound 657]

a:
[669, 191, 306]

# credit: patent US9796711B2
